assay: physchem
Description: Solubility of the compound
PROPERTY_LABEL: solubility (mg/mL)

- COMPOUND: "CCN[C@H]1CN(CCCO[N+](=O)[O-])S(=O)(=O)c2sc(S(N)(=O)=O)cc21"
  solubility (mg/mL): 2.2

A. CCN[C@H]1C[C@H](CCCO[N+](=O)[O-])S(=O)(=O)c2sc(S(N)(=O)=O)cc21
B. CCN[C@H]1CN(CCCOC)S(=O)(=O)c2sc(S(N)(=O)=O)cc21 [BRINZOLAMIDE]
Inquiry: For A and B , which recorded solubility is lower? Reply briefly: the label of your chosen item.
Reply text: B
(B: 0.5 mg/mL, A: 11.3 mg/mL)
